measurement-target: L-lactate dehydrogenase (Plasmodium falciparum (isolate CDC / Honduras))
procedure-text: PfLDH activity inhibition – cell lysate, 3D7 strain, counter-screen for P. falciparum growth inhibition project (AID 2304);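 also: 0% = vehicle and 100% = reference inhibitor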
condition-description: P. falciparum 3D7 crude extract, LDH APAD/NBT absorbance; at 2 µM; stronger effect = higher value
Provide the reported inhibition of each item.
Hi! Could you send only the number? It should be in %, unit omitted.

Query string: Using the record for Cc1ccc(/C=C/C(=O)NC2CCC(N3CCC(c4ccccc4C)CC3)CC2)cc1C (stereo not given) , state its measured inhibition.
Result string: -3

Query string: Using the record for O=C(NC(=Cc1cccc([N+](=O)[O-])c1)c1nc2ccccc2[nH]1)c1cccc(Br)c1 , state its measured inhibition.
Result string: 0

Query string: Using the record for CN(CCc1ccccn1)Cc1ccc(-c2ccc(-c3nc4ccccc4[nH]3)s2)cc1 , state its measured inhibition.
Result string: 6

Query string: Using the record for CCc1nc2ccc(C(=O)OC)nc2n1Cc1ccc2oc(-c3ccccc3N)c(Br)c2c1 , state its measured inhibition.
Result string: -2

Query string: Using the record for Cc1ccc(NC(=O)c2ccc(CN3CCCN(CCC(C)C)CC3)cc2)cc1C , state its measured inhibition.
Result string: 3

Query string: Using the record for COc1ccccc1CN1CCC(NC(=O)c2ccc(-c3ccc(N(C)C)cc3)s2)CC1 , state its measured inhibition.
Result string: -2

Query string: Using the record for CCN(CC)Cc1cccc(-c2cc3c(-c4ccc(C(=O)O)c(C(C)C)c4)ccnc3[nH]2)c1OC , state its measured inhibition.
Result string: -2

Query string: Using the record for COc1ccc(OC)c(NC(=O)C2c3ccccc3C(=O)N(CC(C)C)C2c2cccs2)c1 (stereo not given) , state its measured inhibition.
Result string: -5

Query string: Using the record for Cc1cccc2[nH]c(-c3ccc(-c4ccc(CNCc5ccccc5)cc4)cc3)nc12 , state its measured inhibition.
Result string: -2

Query string: Using the record for CCc1c(CCNCCCCCCNCCc2ccccc2)ccc(OC)c1OC , state its measured inhibition.
Result string: -2

Query string: Using the record for Cc1ccc(C)c(CN2CCC(CNC(=O)c3cc4ccc5cccnc5c4[nH]3)CC2)c1 , state its measured inhibition.
Result string: -3

Query string: Using the record for CNC(=O)/C=C/c1cc(NC(=O)Nc2ccnc3c(Br)cccc23)ccc1OC , state its measured inhibition.
Result string: 1

Query string: Using the record for N#Cc1cc([N+](=O)[O-])ccc1-n1nc(-c2cccc(Cl)c2)n(CC2CCCO2)c1=S (stereo not given) , state its measured inhibition.
Result string: -2

Query string: Using the record for Cc1cc(NN=Cc2ccccc2)c2cc(F)ccc2n1 , state its measured inhibition.
Result string: -1

Query string: Using the record for Nc1cccc(CNCc2ccc(-c3cccc(-c4nc5ccccc5[nH]4)c3)cc2)c1 , state its measured inhibition.
Result string: 6

Query string: Using the record for CS(=O)(=O)c1ccccc1CNC(=O)c1cccc(-c2ccc(-c3nc4ccc(C(F)(F)F)cc4[nH]3)cc2)c1 , state its measured inhibition.
Result string: 3

Query string: Using the record for Cc1cc2ncn(-c3nccc(NCc4ccc(F)c(C)c4)n3)c2cc1C , state its measured inhibition.
Result string: -3

Query string: Using the record for CCOC(=O)CNC(=O)N1CCN(C(=O)NCC(=O)OCC)CC1 , state its measured inhibition.
Result string: -2

Query string: Using the record for O=C(Nc1ccc(-c2nc3ccccc3[nH]2)cc1)c1ccc(Cl)c([N+](=O)[O-])c1 , state its measured inhibition.
Result string: 1

Query string: Using the record for Cc1cc(NN=Cc2cccc(F)c2)c2cc(F)ccc2n1 , state its measured inhibition.
Result string: -1

====

procedure-text: HepG2 cytotoxicity, primary screen, cytotoxicity control for P. falciparum antimalarial project, cell-based, ATP luminescence (AID 2303);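 also: 0% = DMSO wells and 100% = digitonin-killed cells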
condition-description: HepG2 viability, 24-48 h, at 10 µM
The source made the active and inactive calls.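 How the source made its calls: active means inhibition above 50%; inactive means the rest.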
Pick from True (active), False (inactive) when you respond.

Query string: Hi team, can someone confirm the assay call for CCCCN(CCCC)C(=O)CC(O)c1cc2c(Cl)cc(Cl)cc2c2cc(C(F)(F)F)ccc12 (centres undefined) ?
Result string: False

Query string: Hi team, can someone confirm the assay call for CC(=O)Nc1ccc(CN2CCC(NC(=O)c3ccc(-c4cccc(OC(C)C)c4)s3)CC2)cc1 ?
Result string: False

Query string: Hi team, can someone confirm the assay call for Clc1cc(Nc2ncnc3sc(C#C[C@H]4CCCN4)cc23)ccc1OCc1cccnc1Cl ?
Result string: False

Query string: Hi team, can someone confirm the assay call for O=C(NCCCCN1CCC(c2ccc3c(c2O)CCCC3)CC1)c1ccc(-c2ccc(Cl)cc2)cc1 ?
Result string: True

Query string: Hi team, can someone confirm the assay call for CC(O)C1CCCCN1C(=O)c1cccc(-c2cccc(-c3nc4ccccc4[nH]3)c2)c1 (centres undefined) ?
Result string: False

Query string: Hi team, can someone confirm the assay call for O=C(/C=C/c1ccc(Cl)c(Cl)c1)N1CCC(CCCN2CCC(c3c[nH]c4ccccc34)CC2)CC1 ?
Result string: False

Query string: Hi team, can someone confirm the assay call for CCCCCCN1CCC(NCc2ccc(Cl)cc2)CC1 ?
Result string: False

Query string: Hi team, can someone confirm the assay call for CCCc1cc(C)ccc1OCCCON1C(NC(=O)OCC)=NC(NC(=O)OCC)=NC1(C)C ?
Result string: True

Query string: Hi team, can someone confirm the assay call for O=C(Nc1ccc(-c2cccc(-c3nc4ccc(C(F)(F)F)cc4[nH]3)c2)cc1)c1ccncc1 ?
Result string: True

====

procedure-text: HepG2 cytotoxicity, primary screen, cytotoxicity control for P. falciparum antimalarial project, cell-based, ATP luminescence (AID 2303);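 also: 0% = DMSO wells and 100% = digitonin-killed cells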
condition-description: HepG2 viability, 24-48 h, at 10 µM, stronger effect = higher value
So basically, if inhibition comes in under 40% it's 1 (yes), and if it's 40% or more it's 0 (no).

Query string: Does the reported inhibition of CC1(C)N=C(N)N=C(N)N1OCc1cc(Cl)cc2c1OCOC2 stay below 40%?
Result string: 0 (no)

Query string: Does the reported inhibition of O=C(NC1CCC(CCN2Cc3cccc(C(F)(F)F)c3C2)CC1)c1cccc(-c2cccnc2)c1 (stereo not given) stay below 40%?
Result string: 1 (yes)

Query string: Does the reported inhibition of Cn1c(N)c(C(=O)CSc2ncc(-c3ccc(F)cc3)n2Cc2ccccc2)c(=O)n(C)c1=O stay below 40%?
Result string: 1 (yes)

Query string: Does the reported inhibition of O=[N+]([O-])c1ccc(NC(=NC2CCCc3ccccc32)Nc2ccccc2Br)c(O)c1 (stereo not given) stay below 40%?
Result string: 1 (yes)

Query string: Does the reported inhibition of N#Cc1cc(C(=O)c2cc(Cl)ccc2O)cn(-c2cc(Cl)cc(Cl)c2)c1=O stay below 40%?
Result string: 1 (yes)

Query string: Does the reported inhibition of C=C[C@]1(C)C[C@@H](OC(=O)c2n[nH]c3ccccc3c2=O)[C@]2(C)[C@H](C)CC[C@]3(CCC(=O)[C@H]32)[C@@H](C)[C@@H]1O stay below 40%?
Result string: 1 (yes)

Query string: Does the reported inhibition of CC(=O)c1cc(N2CCOCC2)ccc1N stay below 40%?
Result string: 1 (yes)

Query string: Does the reported inhibition of CC(Cc1ccc(OCC(=O)NCC2CCN(CCc3cccc(Cl)c3)CC2)cc1)NCCc1cccc(Cl)c1 (stereo not given) stay below 40%?
Result string: 0 (no)

Query string: Does the reported inhibition of Nc1nc(N)c2c(ccc3c2ccn3CCCCO)n1 stay below 40%?
Result string: 0 (no)

====

Provide the reported growth inhibition of each item.
procedure-text: antimalarial activity against Dd2 strain (AID 2302);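 also: 0% = DMSO untreated growth and 100% = chloroquine plus artemisinin killed control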
condition-description: P. falciparum Dd2 in RBCs, LDH growth readout, 72 h; at 2 µM; stronger effect = higher value
Active and inactive are the calls of the source.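 How the source made its calls: active means growth inhibition above 50% at the single 2 µM test dose, taken to imply half-maximal potency below 2 µM; inactive means the rest.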

Query string: Using the record for CCN(CC)CCCN(CCCN(CC)CC)c1cc(C)nc(Nc2ccc(Cl)cc2)n1 , state its measured growth inhibition.
Result string: 7% (inactive)

Query string: Using the record for CC(C)(C)c1ccc(Cn2c(=N)n(CC(=O)c3ccc(-c4ccccc4)cc3)c3ccccc32)cc1 , state its measured growth inhibition.
Result string: 50% (active)

Query string: Using the record for COc1ccc(C(=O)CCC(=O)N(Cc2ccc(-c3ccc(CNCCc4ccc(S(C)(=O)=O)cc4)cn3)cc2)C2CCN(Cc3ccccc3)CC2)cc1F , state its measured growth inhibition.
Result string: 72% (active)

Query string: Using the record for c1ccc2[nH]c(-c3ccc(-c4ccc(CN5CCCCC5)cc4)cc3)nc2c1 , state its measured growth inhibition.
Result string: 100% (active)

Query string: Using the record for CN(C)c1ccc2c(c1)Sc1cc(N(C)C)ccc1N2C(=O)CCCC(=O)O , state its measured growth inhibition.
Result string: 81% (active)

Query string: Using the record for COc1ccc(CN2CCCN(Cc3cccc(NC(=O)c4ccc(Cl)c(Cl)c4)c3)CC2)cc1 , state its measured growth inhibition.
Result string: 19% (inactive)

Query string: Using the record for O=[N+]([O-])c1nc(Br)n(Cc2ccc(Cl)cc2)n1 , state its measured growth inhibition.
Result string: 95% (active)

Query string: Using the record for Cc1ccc(NC(=O)c2ccc3ncccc3c2)cc1OC1CCN(CCC(C)C)CC1 , state its measured growth inhibition.
Result string: 48% (inactive)

Query string: Using the record for Cc1csc(-c2nc(NCCc3c(C)noc3C)ncc2-c2ccsc2)n1 , state its measured growth inhibition.
Result string: 82% (active)

Query string: Using the record for CN(C)c1cccc2c1nc(-c1ccco1)n2CCNCc1ccccc1 , state its measured growth inhibition.
Result string: 97% (active)

Query string: Using the record for COc1cc2nc(Nc3ccc4c(cnn4Cc4ccccc4)c3)nc(Nc3ccc4c(cnn4Cc4ccccc4)c3)c2cc1OC , state its measured growth inhibition.
Result string: 100% (active)

Query string: Using the record for CNC(=O)c1cc(F)c(F)cc1Nc1nc(Nc2cccc(CS(C)(=O)=O)c2)ncc1Cl , state its measured growth inhibition.
Result string: 90% (active)

Query string: Using the record for O=C(Nc1cccc(F)c1)N1CCC(CN2CCOC(c3ccccc3)(c3ccccc3)C2)CC1 , state its measured growth inhibition.
Result string: 97% (active)

Query string: Using the record for O=C(Cc1cccnc1)Nc1cccc(-c2cccc(-c3nc4ccc(C(F)(F)F)cc4[nH]3)c2)c1 , state its measured growth inhibition.
Result string: 38% (inactive)

Query string: Using the record for COc1ccc(NC(=O)c2ccc(-c3cc(NC(=O)c4ccnc(N5CCCC5)c4)ccc3C)s2)cc1N1CCN(C)CC1 , state its measured growth inhibition.
Result string: 100% (active)

Query string: Using the record for COc1c(C2CCN(CCN3CCC(NC(=O)c4ccc(-c5ccc(C(F)(F)F)cc5)cc4)CC3)CC2)ccc2c1CCCC2 , state its measured growth inhibition.
Result string: 35% (inactive)

Query string: Using the record for CCCCCN1CCCC1CNS(=O)(=O)c1ccc(C(=O)Nc2ccc(C(F)(F)F)cc2)cc1 (stereo not drawn) , state its measured growth inhibition.
Result string: -3% (inactive)

Query string: Using the record for Cc1ccc2c(=O)cc(CCc3cccc(F)c3F)n(CC(=O)N(Cc3ccc(-c4ccc(C(F)(F)F)cc4)cc3)C3CCN(C(C)C)CC3)c2n1 , state its measured growth inhibition.
Result string: 49% (inactive)
